# Target or system: 5-HT1A receptor (Homo sapiens, UniProt P08908)
# Experiment notes: GloSensor cAMP assay, 5-HT1A Gi signaling in HEK 293T cells
# Assay type: cell-based
Endpoint name: pEC50
Field pEC50 (float): negative decimal logarithm of the concentration in molar.

# value of pEC50, 5-HT1A receptor (Homo sapiens, UniProt P08908), item CN(C)CCc1c[nH]c2ccc(O)cc12 [Compound 5-OH-DMT, 5-hydroxy-N,N-dimethyltryptamine] = 7.00

* * *

# Target or system: 5-HT1A receptor (Homo sapiens)
# Sequence (P08908 1-422): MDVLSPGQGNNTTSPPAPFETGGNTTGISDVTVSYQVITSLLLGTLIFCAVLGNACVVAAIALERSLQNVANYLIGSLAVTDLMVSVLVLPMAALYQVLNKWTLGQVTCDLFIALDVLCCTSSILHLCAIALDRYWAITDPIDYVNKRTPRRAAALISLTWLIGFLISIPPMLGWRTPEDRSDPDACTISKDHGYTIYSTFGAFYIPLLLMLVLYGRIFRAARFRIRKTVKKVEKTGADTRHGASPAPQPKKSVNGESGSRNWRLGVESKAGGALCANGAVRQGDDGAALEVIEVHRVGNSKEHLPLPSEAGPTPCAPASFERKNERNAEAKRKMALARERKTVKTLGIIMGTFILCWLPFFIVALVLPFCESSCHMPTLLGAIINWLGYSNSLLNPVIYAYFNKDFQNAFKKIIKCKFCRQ
# Experiment notes: GloSensor cAMP assay, 5-HT1A Gi signaling in HEK 293T cells
# Assay type: cell-based
# Settings: GloSensor cAMP, Gi activation, HEK 293T, Fig. 1A; read-out: EC50 at 5-HT1AR
Endpoint name: EC50 (µM)
Expressed in µM, but write only the number.

Record C[N+](C)(C)CCc1c[nH]c2ccc([O-])cc12 [Compound 5-OH-TMT, 5-hydroxy-N,N,N-dimethyltryptamine] . Reported EC50: 10
